- procedure-details: Cytotoxicity against HEK293 cells incubated for 48 hrs by MTT assay
- Type: toxicity, cell-based
- condition-set: human
With a cut-off of 20 µM, any CC50 at 48 h strictly below it is called met; any CC50 at 48 h meeting it or above is called not met.

Would you please look over these solved cases?
smiles-repr | class-name
O=[N+]([O-])c1ccc(CS(=O)(=O)Oc2c(Br)cc(Br)c3nc4ccccc4nc23)cc1 | not met
Cc1cccc2nc3c(O)c(Br)c(Cl)c(Br)c3nc12 | met
Cc1cccc2nc3c(OS(=O)(=O)Cc4ccc([N+](=O)[O-])cc4)c(Br)c(Cl)c(Br)c3nc12 | not met

INPUT: Please check: CC50 at 48 h for O=S(=O)(Cc1ccccc1)Oc1c(Br)cc(Br)c2nc3cc(Cl)ccc3nc12 , strictly under 20 µM or not?
OUTPUT: not met

INPUT: And for O=S(=O)(Cc1ccccc1)Oc1c(Br)cc(Br)c2nc3c(C(F)(F)F)cc(C(F)(F)F)cc3nc12 ?
OUTPUT: met

INPUT: And for O=[N+]([O-])c1ccc(CS(=O)(=O)Oc2c(Br)cc(Br)c3nc4c(C(F)(F)F)cc(C(F)(F)F)cc4nc23)cc1 ?
OUTPUT: met

INPUT: And for Cc1cccc2nc3c(OS(=O)(=O)Cc4ccccc4)c(Br)c(Cl)c(Br)c3nc12 ?
OUTPUT: not met

INPUT: And for O=S(=O)(Cc1ccccc1)Oc1c(Br)cc(Br)c2nc3ccccc3nc12 ?
OUTPUT: not met

INPUT: And for O=[N+]([O-])c1ccc(CS(=O)(=O)Oc2c(Br)cc(Br)c3nc4cc(Cl)ccc4nc23)cc1 ?
OUTPUT: met

###

- Test system: Staphylococcus aureus
- procedure-details: Antibacterial activity against methicillin-resistant Staphylococcus aureus BAA-44 assessed as bacterial growth inhibition incubated for 16 hrs by CLSI based broth microdilution method
- Assay type: functional
Below, each of the compounds is paired with its reported MIC value.
# output: bare number, implied unit µM

Consider the reported MIC for these compounds:
smiles-repr | measured-quantity | measured-number
Cc1cccc2nc3c(OS(=O)(=O)Cc4ccc([N+](=O)[O-])cc4)c(Br)c(Cl)c(Br)c3nc12 | MIC | 0.3
CN[C@H](CC(C)C)C(=O)N[C@H]1C(=O)N[C@@H](CC(N)=O)C(=O)N[C@H]2C(=O)N[C@H]3C(=O)N[C@H](C(=O)N[C@H](C(=O)O)c4cc(O)cc(O)c4-c4cc3ccc4O)[C@H](O)c3ccc(c(Cl)c3)Oc3cc2cc(c3O[C@@H]2O[C@H](CO)[C@@H](O)[C@H](O)[C@H]2O[C@H]2C[C@](C)(N)[C@H](O)[C@H](C)O2)Oc2ccc(cc2Cl)[C@H]1O | MIC | 0.3
O=[N+]([O-])c1ccc(CS(=O)(=O)Oc2c(Br)cc(Br)c3nc4ccccc4nc23)cc1 | MIC | 1.56
Cc1cccc2nc3c(O)c(Br)c(Cl)c(Br)c3nc12 | MIC | 0.15

Now let's try a different one.
INPUT: Return reported MIC; argument: O=[N+]([O-])c1ccc(CS(=O)(=O)Oc2c(Br)cc(Br)c3nc4cc(Cl)ccc4nc23)cc1
OUTPUT: 0.15

###

Below, each of the compounds is paired with its reported MIC value.
- System: Staphylococcus aureus
- procedure-details: Antibacterial activity against Staphylococcus aureus clinical isolate 138 assessed as bacterial growth inhibition incubated for 16 hrs by CLSI based broth microdilution method
- Type: functional
# output: bare number, implied unit µM

Consider the reported MIC for these compounds:
compound | experimental-target | measured-quantity | measured-number
COc1cccc(OC)c1C(=O)N[C@@H]1C(=O)N2[C@@H]1SC(C)(C)[C@@H]2C(=O)O [METHICILLIN] | Staphylococcus aureus | MIC | 37.5
NC[C@H]1O[C@H](O[C@H]2[C@H](O)[C@@H](O[C@H]3O[C@H](CO)[C@@H](O)[C@H](N)[C@H]3O)[C@H](N)C[C@@H]2N)[C@H](N)C[C@@H]1O [TOBRAMYCIN] | Staphylococcus aureus | MIC | 12.5

INPUT: Return reported MIC; argument: Cc1cccc2nc3c(OS(=O)(=O)Cc4ccc([N+](=O)[O-])cc4)c(Br)c(Cl)c(Br)c3nc12
OUTPUT: 0.39

###

- Test system: Staphylococcus aureus
- procedure-details: Antibacterial activity against methicillin-resistant Staphylococcus aureus BAA-44 assessed as bacterial growth inhibition incubated for 16 hrs by CLSI based broth microdilution method
- Format: functional
measured-quantity: MIC (µM)
# output: bare number, implied unit µM

Consider the reported MIC for these compounds:
smiles-repr | unit | MIC
O=S(=O)(Cc1ccccc1)Oc1c(Br)cc(Br)c2nc3c(C(F)(F)F)cc(C(F)(F)F)cc3nc12 | µM | 18.8
O=[N+]([O-])c1ccc(CS(=O)(=O)Oc2c(Br)cc(Br)c3nc4c(C(F)(F)F)cc(C(F)(F)F)cc4nc23)cc1 | µM | 4.69
Oc1c(Br)cc(Br)c2nc3cc(Cl)ccc3nc12 | µM | 0.15

INPUT: Notebook: pull reported MIC for Staphylococcus aureus, entry Oc1c(Br)cc(Br)c2nc3c(C(F)(F)F)cc(C(F)(F)F)cc3nc12
OUTPUT: 0.15

###

- procedure-details: Metal chelating activity assessed as formation of phenazine-iron complex measured for 1 to 60 mins by UV-vis spectroscopy
- condition-set: time 1-60 min
Activity calls are given as the source filed them. No cut-off for these calls is given here.
A correct response names exactly one class from active, inactive

Would you please look over these solved cases?
smiles-repr | class-name
O=S(=O)(Cc1ccccc1)Oc1c(Br)cc(Br)c2nc3c(C(F)(F)F)cc(C(F)(F)F)cc3nc12 | inactive
O=[N+]([O-])c1ccc(CS(=O)(=O)Oc2c(Br)cc(Br)c3nc4c(C(F)(F)F)cc(C(F)(F)F)cc4nc23)cc1 | inactive
Cc1cccc2nc3c(OS(=O)(=O)Cc4ccccc4)c(Br)c(Cl)c(Br)c3nc12 | inactive
O=S(=O)(Cc1ccccc1)Oc1c(Br)cc(Br)c2nc3cc(Cl)ccc3nc12 | inactive
Cc1cccc2nc3c(O)c(Br)c(Cl)c(Br)c3nc12 | inactive

INPUT: For Oc1c(Br)cc(Br)c2nc3cc(Cl)ccc3nc12 , what call appears in the results of this test?
OUTPUT: active

INPUT: And for O=S(=O)(Cc1ccccc1)Oc1c(Br)cc(Br)c2nc3ccccc3nc12 ?
OUTPUT: inactive

INPUT: And for Cc1cccc2nc3c(OS(=O)(=O)Cc4ccc([N+](=O)[O-])cc4)c(Br)c(Cl)c(Br)c3nc12 ?
OUTPUT: active

INPUT: And for O=[N+]([O-])c1ccc(CS(=O)(=O)Oc2c(Br)cc(Br)c3nc4ccccc4nc23)cc1 ?
OUTPUT: inactive

###

Below, each of the molecules is paired with its reported logP at 1 h value.
- procedure-details: Lipophilicity, LogP of compound in octanol-water mixture incubated for 1 hr by UV-vis spectroscopy
- Format: physicochemical
# respond with the number and nothing more

Consider the reported logP at 1 h for these molecules:
smiles-repr | logP at 1 h
Oc1c(Br)cc(Br)c2nc3ccccc3nc12 | 0.25
Cc1cccc2nc3c(OS(=O)(=O)Cc4ccc([N+](=O)[O-])cc4)c(Br)c(Cl)c(Br)c3nc12 | 3.11
Cc1cccc2nc3c(O)c(Br)c(Cl)c(Br)c3nc12 | 0.81

Now let's try a different one.
INPUT: Return reported logP at 1 h; argument: O=[N+]([O-])c1ccc(CS(=O)(=O)Oc2c(Br)cc(Br)c3nc4ccccc4nc23)cc1
OUTPUT: 0.42

###

- Test system: Staphylococcus epidermidis
- procedure-details: Antibacterial activity against Staphylococcus epidermidis 12228 assessed as bacterial growth inhibition incubated for 16 hrs by CLSI based broth microdilution method
- Format: functional
measured-quantity: MIC (µM)
# output: bare number, implied unit µM

compound | unit | MIC
Oc1c(Br)cc(Br)c2nc3c(C(F)(F)F)cc(C(F)(F)F)cc3nc12 | µM | 0.1
CN[C@H](CC(C)C)C(=O)N[C@H]1C(=O)N[C@@H](CC(N)=O)C(=O)N[C@H]2C(=O)N[C@H]3C(=O)N[C@H](C(=O)N[C@H](C(=O)O)c4cc(O)cc(O)c4-c4cc3ccc4O)[C@H](O)c3ccc(c(Cl)c3)Oc3cc2cc(c3O[C@@H]2O[C@H](CO)[C@@H](O)[C@H](O)[C@H]2O[C@H]2C[C@](C)(N)[C@H](O)[C@H](C)O2)Oc2ccc(cc2Cl)[C@H]1O [VANCOMYCIN] | µM | 1.56

Now let's try a different one.
INPUT: Return reported MIC; argument: Oc1c(Br)cc(Br)c2nc3cc(Cl)ccc3nc12
OUTPUT: 0.3

###

- procedure-details: Metal chelating activity assessed as formation of phenazine-iron complex measured for 1 to 60 mins by UV-vis spectroscopy
- condition-set: time 1-60 min
Active and inactive are the calls of the source. The calls are words filed in the database; no cut-off is given here.
A correct response names exactly one class from active, inactive

Would you please look over these solved cases?
smiles-repr | class-name
O=[N+]([O-])c1ccc(CS(=O)(=O)Oc2c(Br)cc(Br)c3nc4cc(Cl)ccc4nc23)cc1 | inactive
Oc1c(Br)cc(Br)c2nc3ccccc3nc12 | active

INPUT: For Oc1c(Br)cc(Br)c2nc3c(C(F)(F)F)cc(C(F)(F)F)cc3nc12 , what call appears in the results of this test?
OUTPUT: active
